- System: LOX IMVI melanoma
- PROCEDURE_SUMMARY: NCI tumour cell line growth inhibition, 48 h
MEASUREMENT_KIND: TGI (µM)
Give bare numbers, in µM.

[
  {
    "MOLECULE": "CCNc1cc2c3c(c1)CCCN3CCC2",
    "SYSTEM": "LOX IMVI melanoma",
    "TGI [µM]": 13.5
  },
  {
    "MOLECULE": "Oc1ccc2ccccc2c1C1NN=C(c2ccccc2)S1 (stereo unspecified)",
    "SYSTEM": "LOX IMVI melanoma",
    "TGI [µM]": 13
  }
]

Would you kindly look at the next entry?
Summary: `CC(C)[NH-].CC(C)[NH-].O.O.[Cl][Pt+2][Cl]` , LOX IMVI melanoma, TGI = 51.4
